Origin of measurements: ChEMBL document CHEMBL1201862

Test system: MOLT-4
Assay: NCI tumour cell line growth inhibition, 48 h
Calls of active or inactive are those of the source. No stated cut-off is given here; in the data, active = GI50 up to about 1.1 µM and inactive = higher.
Outcome codes: 1 (yes) = active, 0 (no) = inactive

compound | label class
CCOC(=O)c1cc(C2(O)CCN(Cc3ccccc3)C2=O)c(-c2cc(C)no2)[nH]1 (stereo unspecified) | 0 (no)
NNC(=O)c1ccccc1NC(=O)/C(=C/c1ccccc1O)NC(=O)c1ccccc1 | 0 (no)
C=CCN1C(=O)/C(=C/c2ccc(OC)cc2)N=C1SC/C=C/C | 0 (no)
COC(=O)/C=C/C1(O)C=CC(=O)C=C1 | 0 (no)
O=C(O)c1cc2ccccc2c2c1C(=O)c1ccccc1-2 | 0 (no)
COc1ccc2oc(=N)c(C(=O)Nc3ccccc3)cc2c1 | 0 (no)
CN(C)CCC(C#N)(c1ccccc1)c1ccccc1 | 1 (yes)
NC(=O)NCCSC1CCCCC1O (stereo unspecified) | 0 (no)
CC[C@@]1(CCC(=O)NCCc2c[nH]c3ccccc23)CCC(=O)N2CCc3c([nH]c4ccccc34)[C@H]21 | 0 (no)
CS(=O)(=O)N(N(CCCl)S(=O)(=O)c1ccccc1)S(C)(=O)=O | 0 (no)
COC(=O)c1ccc(OCc2ccc3nc(OC)c(OC)nc3c2)cc1 | 0 (no)

###

Tested on: MDA-N
Assay: NCI tumour cell line growth inhibition, 48 h
Active and inactive are the calls of the source. Cut-off read from the data, not from the text of the source: active = GI50 up to about 1.1 µM and inactive = higher.
Possible outcomes: active, inactive

molecule | label class
CCCCCCCCCCCCCCCCCCNc1ccn(C2OC(CO)C(OP(=O)(O)OCC(COP(=O)(O)OCC3OC(n4cc(F)c(NCCCCCCCCCCCCCCCCCC)nc4=O)CC3O)OC(=O)CCCCCCCCCCCCCCC)C2O)c(=O)n1 (centres undefined) | inactive
Clc1ccc(CCN[C@H]2CCCC[C@H]2N2CCCC2)cc1Cl | inactive
CC(C)(C)OC(=O)N1CC(CCl)c2ccc(O)cc21 (centres undefined) | inactive
CSc1c(C)[n+]([O-])c2cc(Cl)c(Cl)cc2[n+]1[O-] | inactive
CCOC(=O)NC(OCCN(C)C)(C(F)(F)F)C(F)(F)F | inactive
c1csc(-c2csc(-c3ccsc3)c2)c1 | inactive
COc1ccc(NC2Oc3cc4c(cc3C(c3cc(OC)c(OC)c(OC)c3)C2C)OCO4)cc1 (centres undefined) | active
CC1=C(/C=C/C(C)=C/C=C/C(C)=C/CO)C(C)(C)CCC1 [RETINOL] | inactive
CCCC(O)c1cn(C(NC(=O)c2ccccc2)P(=O)(OCC)OCC)nn1 (centres undefined) | inactive

###

System: SF-268
Assay: NCI tumour cell line growth inhibition, 48 h
Calls of active or inactive are those of the source. Cut-off read from the data, not from the text of the source: active = GI50 up to about 1.1 µM and inactive = higher.
Entries annotated with measured GI50

molecule | GI50
CCOP(=O)(OCC)/C(C#N)=C/c1cccn1N(C)C | > 100 µM (inactive)
O=c1ssc2c1Nc1c(ssc1=O)S2 | 16.2 µM (inactive)
Cc1c(C)c2c(c(N)c1C#N)C(=O)N(CCc1ccccc1)C2=O | > 100 µM (inactive)
O=C(CC1Sc2ccccc2NC1=O)Nc1cc(Cl)ccc1Cl (centres undefined) | > 100 µM (inactive)
O=C(CCN1CCCC1)c1ccc(Oc2ccc(F)cc2)cc1 | 87.3 µM (inactive)
CCC(C)C1NC(=O)CNC(=O)C2Cc3c([nH]c4cc(O)ccc34)[S+]([O-])CC(NC(=O)CNC1=O)C(=O)NC(CC(=O)O)C(=O)N1CC(O)CC1C(=O)NC(C(C)C(O)CO)C(=O)N2 (centres undefined) | 1.64 µM (inactive)
Cc1ccc([N+](=O)[O-])c2c(NCCCN(C)C)ccnc12 | > 95.9 µM (inactive)
CCCCCCCCCCCCCCCCNc1ccn(C2CC(O)C(COC(c3ccccc3)(c3ccccc3)c3ccc(OC)cc3)O2)c(=O)n1 (centres undefined) | > 100 µM (inactive)
CC[C@@]1(CCC(=O)NCCc2c[nH]c3ccccc23)CCC(=O)N2CCc3c([nH]c4ccccc34)[C@H]21 | 5.64 µM (inactive)

###

Tested on: SNB-19
Experiment: NCI tumour cell line growth inhibition, 48 h
Calls of active or inactive are those of the source. Cut-off read from the data, not from the text of the source: active = GI50 up to about 1.1 µM and inactive = higher.
Outcome codes: YES for active, NO for inactive

molecule | label class
OCCCCCNc1cc(O)nc(O)n1 | NO
Cc1csc2c(P(=O)(OC(C)C)OC(C)C)c(-c3ccccc3)cn12 | NO
CC(=O)Oc1ccc2c(c1)c1c(=O)oc(N(C)C)nc1n2Cc1ccccc1 | NO
C/C(=C\C(C)COCc1ccccc1)[C@H](COCc1ccccc1)OCc1ccccc1 (stereo partly specified) | NO
COc1ccc(NC2Oc3cc4c(cc3C(c3cc(OC)c(OC)c(OC)c3)C2C)OCO4)cc1 (stereo unspecified) | YES
COCOC1/C=C/CCCCC(=O)C(C)C#CC1 (stereo unspecified) | NO

###

System: U-251
Assay: NCI tumour cell line growth inhibition, 48 h
The source made the active and inactive calls. Cut-off read from the data, not from the text of the source: active = GI50 up to about 1.1 µM and inactive = higher.
GI50: recorded values
reported endpoint: GI50

compound | experimental target | reported endpoint | assay result
CC(=O)c1c(C)[n+]([O-])c2cc(C)c(C)cc2[n+]1[O-] | U-251 | GI50 | > 100 µM (inactive)
CC(=O)O[C@H]1CC[C@@]2(C)C(=CC[C@@H]3[C@@H]2CC[C@]2(C)c4c(C)nn(-c5ccccc5)c4C[C@@H]32)C1 | U-251 | GI50 | 20.7 µM (inactive)
CC1(c2cccc(C3CCC4(C=CC3=O)OCCO4)c2)OCCO1 (stereo not given) | U-251 | GI50 | 18.1 µM (inactive)
Fc1ccc(C(OCCN2CCN(CCCCl)CC2)c2ccc(F)cc2)cc1 | U-251 | GI50 | 41 µM (inactive)
CC(=O)OCC1OC(n2c(N)c(C#N)c(-c3ccc(C)cc3)c(C#N)c2=S)C(OC(C)=O)C(OC(C)=O)C1OC(C)=O (stereo not given) | U-251 | GI50 | 17 µM (inactive)
c1csc(-c2csc(-c3ccsc3)c2)c1 | U-251 | GI50 | > 100 µM (inactive)
O=C(O)CCCNS(=O)(=O)c1ccc2ccccc2c1 | U-251 | GI50 | > 100 µM (inactive)
O=S(=O)(N=[Se](=O)(c1ccccc1)c1ccccc1)c1ccccc1 | U-251 | GI50 | > 100 µM (inactive)
Cc1cn([C@H]2C[C@@H](N3C(=O)c4ccccc4C3=O)[C@@H](CO[Si](C)(C)C(C)(C)C)O2)c(=O)[nH]c1=O | U-251 | GI50 | 34.9 µM (inactive)
COC(=O)C12OCC34C(CC5C(C)=C(O)C(=O)CC5(C)C3C(O)C1O)OC(=O)C(OC(=O)C=C(C)C)C24 (stereo not given) | U-251 | GI50 | 316 µM (inactive)
CC(C)OC(=S)Nc1ccc(Cl)c(/C=N/OC(C)(C)C)c1 | U-251 | GI50 | 17.1 µM (inactive)
COc1ccc(NC(/C(C(=O)c2ccccc2)=C(\O)C(=O)/C=C(\O)c2ccccc2)c2ccc(OC)cc2)cc1 (stereo not given) | U-251 | GI50 | 38.9 µM (inactive)
CC(=O)Nc1ccc2nc(-c3cccc(F)c3)cc(O)c2c1 | U-251 | GI50 | 2.67 µM (inactive)
COc1ccc(CC(N)=O)cc1OC | U-251 | GI50 | > 1250 µM (inactive)
COc1cc([C@@H]2c3cc4c(cc3[C@@H](OC3OC5COC(C)OC5C(O)C3O)[C@H]3COC(=O)[C@H]23)OCO4)cc(OC)c1O (stereo not given in full) | U-251 | GI50 | 3.3 µM (inactive)
O=C(NC(=O)c1cc2cc(Br)cc(Br)c2oc1=O)Oc1ccccc1 | U-251 | GI50 | 28.2 µM (inactive)
COc1ccc(/C(=N/O)c2ccccc2-c2nc3ccccc3c(=O)n2-c2ccc(S(=O)(=O)Nc3ncccn3)cc2)cc1C | U-251 | GI50 | 11.8 µM (inactive)
CSc1c(C)[n+]([O-])c2cc(Cl)c(Cl)cc2[n+]1[O-] | U-251 | GI50 | 21.9 µM (inactive)
CSC1=N/C(=C\c2ccc(Cl)cc2)C(=O)N1CN1CCCCC1 | U-251 | GI50 | 47.8 µM (inactive)
c1c[nH]c(-c2ccc(-c3ccc[nH]3)c3nsnc23)c1 | U-251 | GI50 | 42.1 µM (inactive)
O=c1onc2c3ccccc3ncn12 | U-251 | GI50 | > 100 µM (inactive)
CC(C)(C)C(=O)CC1(O)C=C(O)C(O)(CC(=O)C(C)(C)C)O1 (stereo not given) | U-251 | GI50 | 36.8 µM (inactive)
O=c1[nH]c(=O)n(COCc2ccccc2)c2ccsc12 | U-251 | GI50 | > 100 µM (inactive)
Cc1ccsc1/C=N/Nc1cc(C)c2cccc(C)c2n1 | U-251 | GI50 | > 100 µM (inactive)
COC(=O)/C=C/C1(O)C=CC(=O)C=C1 | U-251 | GI50 | 3.67 µM (inactive)
